target: Phosphodiesterase 4 (Homo sapiens, UniProt P27815+Q08499+Q07343+Q08493); test: Inhibition of PDE4 (unknown origin) using [3H]cAMP[…] as substrate incubated for 15 mins by phosphodiesterase scintillation proximity assay; type: protein assay
Below, each of the compounds is paired with its reported IC50 value.

{"TEST_SMILES": "COc1c(O)c(-c2ccccc2)c(OC(C)=O)c(OC)c1-c1ccccc1", "IC50 (µM)": 1.2}
{"TEST_SMILES": "COc1c(O)c(-c2ccccc2)c(O)c(OC)c1-c1ccc(O)cc1", "IC50 (µM)": 0.62}
{"TEST_SMILES": "COc1cc(-c2ccc(O)c(CC=C(C)C)c2)c(OC)c(O)c1-c1ccc(OCC=C(C)C)c(O)c1", "IC50 (µM)": 3}

* * *

biological target: Phosphodiesterase 4 (Homo sapiens, UniProt P27815+Q08499+Q07343+Q08493); test: Inhibition of PDE4 (unknown origin) using [3H]cAMP[…] as substrate incubated for 15 mins by phosphodiesterase scintillation proximity assay; assay type: protein assay

{"TEST_SMILES": "COc1c(O)c(-c2ccccc2)c(O)c(OC)c1-c1ccccc1", "IC50 [µM]": 0.4}
{"TEST_SMILES": "COc1cc(-c2ccc(O)cc2)c(OC)c(O)c1-c1ccc(O)c(CC=C(C)C)c1", "IC50 [µM]": 4.2}
{"TEST_SMILES": "COc1ccc(-c2c(OC)cc(-c3ccc(O)c(CC=C(C)C)c3)c(OC)c2O)cc1OC", "IC50 [µM]": 1.8}
{"TEST_SMILES": "COc1cc(-c2ccccc2)c(OC)c(O)c1-c1ccc(OCC=C(C)C)c(O)c1", "IC50 [µM]": 3.5}
{"TEST_SMILES": "COc1c(-c2ccc(O)cc2)cc(O)c(-c2ccccc2)c1O", "IC50 [µM]": 16}

Cited source for all entries: ChEMBL document CHEMBL5576089
